# System: KARPAS-299 (T-Cell Non-Hodgkin's Lymphoma)
# Protocol: combination Emax (second highest fraction inhibited in the dose matrix, 72 h); higher = more inhibition; extreme values may be limits of the assay
Experimental endpoint: combination Emax
Give bare numbers.

Look over these answered cases.
[[record]]
compound = "CN(C)CCCOc1ccc(-c2ccc3ncc4c(c3c2)n(C2CCOCC2)c(=O)n4C)cn1 [AZD0156] + O=C(c1cc(Cc2n[nH]c(=O)c3ccccc23)ccc1F)N1CCN(C(=O)C2CC2)CC1 [Olaparib] (first compound max 3 µM, partner max 3 µM)"
assay_system = "KARPAS-299 (T-Cell Non-Hodgkin's Lymphoma)"
numeric_readout = 0.467

[[record]]
compound = "Cc1cc2ncnn2cc1Nc1ncc2c(n1)n(C1CCOCC1)c(=O)n2C [AZD7648] + C=CCn1c(=O)c2cnc(Nc3ccc(N4CCN(C)CC4)cc3)nc2n1-c1cccc(C(C)(C)O)n1 [AZD1775] (first compound max 10 µM, partner max 1 µM)"
assay_system = "KARPAS-299 (T-Cell Non-Hodgkin's Lymphoma)"
numeric_readout = 0.927


Working through the 5 compounds below one at a time, give combination Emax for each.
1. Cc1c2c(nn1C)CSCc1cc(n(C)n1)CSc1cc(c3ccccc3c1)OCCCc1c(C(=O)O)n(C)c3c-2c(Cl)ccc13 [AZD5991] + CN(C)CCCOc1ccc(-c2ccc3ncc4c(c3c2)n(C2CCOCC2)c(=O)n4C)cn1 [AZD0156] (first compound max 1 µM, 7x7, partner max 1 µM)
2. COc1nnc2ccc(N3CCC(c4ccc(OCCN5CCN(C)C(=O)[C@H]5C)cc4)CC3)nn12 [AZD5153] + Cn1cnc2c(F)c(Nc3ccc(Br)cc3Cl)c(C(=O)NOCCO)cc21 [Selumetinib] (first compound max 1 µM, 7x7, partner max 10 µM)
3. COc1nnc2ccc(N3CCC(c4ccc(OCCN5CCN(C)C(=O)[C@H]5C)cc4)CC3)nn12 [AZD5153] + CCN(CCO)CCCOc1ccc2c(Nc3cc(CC(=O)Nc4cccc(F)c4)[nH]n3)ncnc2c1 [AZD2811] (first compound max 1 µM, 7x7, partner max 1 µM)
4. CN(CCO)CC[C@H](CSc1ccccc1)Nc1ccc(S(=O)(=O)NC(=O)c2ccc(N3CCC([C@@H](O)c4ccccc4-c4ccc(Cl)cc4)CC3)cc2)cc1S(=O)(=O)C(F)(F)F [AZD4320] + C1CN(CCC1(C(=O)N[C@@H](CCO)C2=CC=C(C=C2)Cl)N)C3=NC=NC4=C3C=CN4 [Capivasertib] (first compound max 1 µM, 7x7, partner max 3 µM)
5. O=C(c1cc(Cc2n[nH]c(=O)c3ccccc23)ccc1F)N1CCN(C(=O)C2CC2)CC1 [Olaparib] + CC1(C)CCC(CN2CCN(c3ccc(C(=O)NS(=O)(=O)c4ccc(NCC5CCOCC5)c([N+](=O)[O-])c4)c(Oc4cnc5[nH]ccc5c4)c3)CC2)=C(c2ccc(Cl)cc2)C1 [Venetoclax] (first compound max 10 µM, 7x7, partner max 1 µM)

[reply]
1: 0.978; 2: 0.996; 3: 0.847; 4: 0.0749; 5: 0.306

// each listed compound needs a value for combination Emax
1. COc1cccc(OCCCN)c1-c1cc(Nc2cnc(C#N)cn2)n[nH]1 [Prexasertib] + CN(C)CCCOc1ccc(-c2ccc3ncc4c(c3c2)n(C2CCOCC2)c(=O)n4C)cn1 [AZD0156] (first compound max 1 µM, 7x7, partner max 1 µM)
2. CC1(C)CCC(CN2CCN(c3ccc(C(=O)NS(=O)(=O)c4ccc(NCC5CCOCC5)c([N+](=O)[O-])c4)c(Oc4cnc5[nH]ccc5c4)c3)CC2)=C(c2ccc(Cl)cc2)C1 [Venetoclax] + C[C@@H]1COCCN1C2=NC(=NC(=C2)C3(CC3)[S@](=N)(=O)C)C4=C5C=CNC5=NC=C4 [AZD6738] (first compound max 1 µM, 7x7, partner max 10 µM)
3. CCc1c2c(nc3ccc(O)cc13)-c1cc3c(c(=O)n1C2)COC(=O)[C@]3(O)CC [SN-38] + CN(C)CCCOc1ccc(-c2ccc3ncc4c(c3c2)n(C2CCOCC2)c(=O)n4C)cn1 [AZD0156] (first compound max 0.3 µM, 7x7, partner max 1 µM)
4. N#Cc1cnc(Nc2cc(NC[C@H]3CNCCO3)c(C(F)(F)F)cn2)cn1 [SRA737] + O=c1[nH]cc(F)c(=O)[nH]1 [5-Fluorouracil] (first compound max 10 µM, 7x7, partner max 20 µM)
5. CN(C)CCCOc1ccc(-c2ccc3ncc4c(c3c2)n(C2CCOCC2)c(=O)n4C)cn1 [AZD0156] + C=CCn1c(=O)c2cnc(Nc3ccc(N4CCN(C)CC4)cc3)nc2n1-c1cccc(C(C)(C)O)n1 [AZD1775] (first compound max 1 µM, partner max 1 µM)

[reply]
1. 0.983
2. 0.954
3. 0.924
4. 0.996
5. 0.918
